From: patent US20220177587A1

Target: human CTLA-4 (human) (UniProt P16410)
Sequence (P16410 36-223): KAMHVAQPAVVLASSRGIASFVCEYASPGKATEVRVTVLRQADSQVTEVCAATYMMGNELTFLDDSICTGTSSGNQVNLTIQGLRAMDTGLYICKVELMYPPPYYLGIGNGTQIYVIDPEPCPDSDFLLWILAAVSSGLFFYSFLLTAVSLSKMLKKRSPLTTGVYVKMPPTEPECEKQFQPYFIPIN
Assay: flow cytometry, CHO/CTLA4 cells; MFI over CD80 WT IgV-Fc
parameter: Fold change to WT CD80 (fold)

{"columns": ["binder", "parameter", "unitsLabel", "experimentalResult"],
 "data": [
  ["CD80 E35D/D46V/M47L/V68M/L85Q/E88D IgV-Fc, EAAAK linker (Fc fusion) VIHVTKEVKEVATLSCGHNVSVEELAQTRIYWQKDKKMVLTMMSGVLNIWPEYKNRTIFDITNNLSIMILALRPSDEGTYECVVQKYDKDAFKREHLAEVTLSVKADEAAAK", "Fold change to WT CD80", "fold", 24.2],
  ["variant CD80 IgV-Fc (inert) H18Y/E35D/M47V/V68L/A71G/D90G (Fc fusion) VIHVTKEVKEVATLSCGYNVSVEELAQTRIYWQKDKKMVLTMMSGDVNIWPEYKNRTIFDITNNLSILILGLRPSDEGTYECVVLKYEKGAFKREHLAEVTLSVKAD", "Fold change to WT CD80", "fold", 11.9],
  ["CD80 E35D/D46V/M47L/V68M/L85Q/E88D IgV-Fc, GS(G4S)5 linker (Fc fusion) VIHVTKEVKEVATLSCGHNVSVEELAQTRIYWQKDKKMVLTMMSGVLNIWPEYKNRTIFDITNNLSIMILALRPSDEGTYECVVQKYDKDAFKREHLAEVTLSVKADGSGGGGSGGGGSGGGGSGGGGSGGGGS", "Fold change to WT CD80", "fold", 22.2],
  ["variant CD80 IgV-Fc (inert) H18T/A26N/E35D/M47L/V68M/A71G (Fc fusion) VIHVTKEVKEVATLSCGTNVSVEELNQTRIYWQKDKKMVLTMMSGDLNIWPEYKNRTIFDITNNLSIMILGLRPSDEGTYECVVLKYEKDAFKREHLAEVTLSVKAD", "Fold change to WT CD80", "fold", 15.1],
  ["variant CD80 IgV-Fc (inert) H18V/A26Q/E35D/M47V/V68L/A71G/D90G (Fc fusion) VIHVTKEVKEVATLSCGVNVSVEELQQTRIYWQKDKKMVLTMMSGDVNIWPEYKNRTIFDITNNLSILILGLRPSDEGTYECVVLKYEKGAFKREHLAEVTLSVKAD", "Fold change to WT CD80", "fold", 12.8],
  ["variant CD80 IgV-Fc (inert) H18Y/A26P/E35D/M47I/V68M/A71G (Fc fusion) VIHVTKEVKEVATLSCGYNVSVEELPQTRIYWQKDKKMVLTMMSGDINIWPEYKNRTIFDITNNLSIMILGLRPSDEGTYECVVLKYEKDAFKREHLAEVTLSVKAD", "Fold change to WT CD80", "fold", 8.8],
  ["variant CD80 IgV-Fc (inert) H18F/A26P/E35D/M47I/V68M/A71G/D90G (Fc fusion) VIHVTKEVKEVATLSCGFNVSVEELPQTRIYWQKDKKMVLTMMSGDINIWPEYKNRTIFDITNNLSIMILGLRPSDEGTYECVVLKYEKGAFKREHLAEVTLSVKAD", "Fold change to WT CD80", "fold", 17.3],
  ["CD80 E35D/D46V/M47L/V68M/L85Q/E88D IgV-Fc, (EAAAK)3 linker (Fc fusion) VIHVTKEVKEVATLSCGHNVSVEELAQTRIYWQKDKKMVLTMMSGVLNIWPEYKNRTIFDITNNLSIMILALRPSDEGTYECVVQKYDKDAFKREHLAEVTLSVKADEAAAKEAAAKEAAAK", "Fold change to WT CD80", "fold", 26.8],
  ["variant CD80 IgV-Fc (inert) H18F/A26D/E35D/D46E/M47T/V68M/A71G/D90G (Fc fusion) VIHVTKEVKEVATLSCGFNVSVEELDQTRIYWQKDKKMVLTMMSGETNIWPEYKNRTIFDITNNLSIMILGLRPSDEGTYECVVLKYEKGAFKREHLAEVTLSVKAD", "Fold change to WT CD80", "fold", 12.4],
  ["CD80 E35D/M47V/N48K/V68M/K89N IgV-Fc, (EAAAK)3 linker (Fc fusion) VIHVTKEVKEVATLSCGHNVSVEELAQTRIYWQKDKKMVLTMMSGDVKIWPEYKNRTIFDITNNLSIMILALRPSDEGTYECVVLKYENDAFKREHLAEVTLSVKADEAAAKEAAAKEAAAK", "Fold change to WT CD80", "fold", 22.6],
  ["variant CD80 IgV-Fc (inert) H18F/A26N/E35D/M47V/V68M/A71G/D90K (Fc fusion) VIHVTKEVKEVATLSCGFNVSVEELNQTRIYWQKDKKMVLTMMSGDVNIWPEYKNRTIFDITNNLSIMILGLRPSDEGTYECVVLKYEKKAFKREHLAEVTLSVKAD", "Fold change to WT CD80", "fold", 11],
  ["variant CD80 IgV-Fc (inert) H18Y/E35D/M47V/V68M/A71G (Fc fusion) VIHVTKEVKEVATLSCGYNVSVEELAQTRIYWQKDKKMVLTMMSGDVNIWPEYKNRTIFDITNNLSIMILGLRPSDEGTYECVVLKYEKDAFKREHLAEVTLSVKAD", "Fold change to WT CD80", "fold", 17.1]
]}
